ASSAY EXPLANATION: antimalarial activity against Dd2 strain (AID 2302)
CONDITION: P. falciparum Dd2 in RBCs, LDH growth readout, 72 h; at 2 µM
Activity calls are given as the source filed them.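 How the source made its calls: active means growth inhibition above 50% at the single 2 µM test dose, taken to imply half-maximal potency below 2 µM; inactive means the rest.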
API: response.call in Y = active, N = inactive

Example cases with answers are listed next.
# COMPOUND, ANSWER LABEL
rows = [
    ("CC(C)/C(=C(/F)CN1C(=O)C(NC(=O)c2cc3ccccc3[nH]2)C(=O)N(c2ccccc2)c2ccccc21)c1ccccc1 (centres undefined)", "Y"),
    ("C[C@H](Cc1ccc(OCCCCCCOc2ccccc2)cc1)NC[C@H](O)c1cccc(Cl)c1", "Y"),
    ("O=C(NCc1ccccc1)c1nn(CCCN2CCC3(CC2)C(=O)NCN3c2ccccc2)cc1-c1ccc(Cl)c(Cl)c1", "N"),
]

Answer briefly: the call reported for `CCCCn1c(C)c(C(=O)OCC)c2cc(OC(C)=O)c(Br)cc21` in this assay.
Y

Answer briefly: the call reported for `CCCCCc1cc(O)c2c3c(c(=O)oc2c1)CN(C)CC3` in this assay.
Y

Answer briefly: the call reported for `CC[C@H]1CN2CC[C@H]1C[C@@H]2[C@@H](O)c1cc(Cl)nc2ccc(OC)cc12` in this assay.
Y

Answer briefly: the call reported for `CC(C)CNCc1cccc(-c2ccc(CN(C(=O)NC3CCCCC3)C3CCN(Cc4ccccc4)CC3)cc2)c1` in this assay.
Y

Answer briefly: the call reported for CC(Cc1ccc(Oc2ccccc2)cc1)NCC(O)c1cccc(C(F)(F)F)c1 (centres undefined) in this assay.
Y

Answer briefly: the call reported for CC[C@H]1CN2CC[C@H]1C[C@H]2[C@H](O)c1cc(N2CCC3CCCCC3C2)nc2ccc(OC)cc12 (some centres undefined) in this assay.
Y
